Every entry's value here was drawn from paper PMC11661448.

B1: EFR3A (721 to 791) [human] / TTC7B-FAM126A (1 to 308) [human] (parent)
chain 1: MATKKAGSRLETEIERCRSECQWERIPELVKQLSAKLIANDDMAELLLGESKLEQYLKEHPLRQGASPRGPKPQLTEVRKHLTAALDRGNLKSEFLQESNLIMAKLNYVEGDYKEALNIYARVGLDDLPLTAVPPYRLRVIAEAYATKGLCLEKLPISSSTSNLHVDREQDVITCYEKAGDIALLYLQEIERVILSNIQNRSPKPGPAPHDQELGFFLETGLQRAHVLYFKNGNLTRGVGRFRELLRAVETRTTQNLRMTIARQLAEILLRGMCEQSYWNPLEDPPCQSPLDDPLRKGANTKTYTLTRRARVYSGENIFCPQENTEEALLLLLISESMANRDAVLSRIPEHKSDRLISLQSASVVYDLLTIALGRRGQYEMLSECLERAMKFAFEEFHLWYQFALSLMAAGKSARAVKVLKECIRLKPDDATIPLLAAKLCMGSLHWLEEAEKFAKTVVDVGEKTSEFKAKGYLALGLTYSLQATDASLRGMQEVLQRKALLAFQRAHSLSPTDHQAAFYLALQLAISRQIPEALGYVRQALQLQGDDANSLHLLALLLSAQKHYHDALNIIDMALSEYPENFILLFSKVKLQSLCRGPDEALLTCKHMLQIWKSCYNLTNPSDSGRGSSLLDRTIADRRQLNTITLPDFSDPETGSVHATSVAASRVEQALSEVASSLQSSAPKQGPLHPWMTLAQIWLHAAEVYIGIGKPAEATACTQEAANLFPMSHNVLYMRGQIAELRGSMDEARRWYEEALAISPTHVKSMQRLALILHQLGRYSLAEKILRDAVQVNSTAHEVWNGLGEVLQAQGNDAAATECFLTALELEASSPAVPFTIIPRVL
chain 2: MFTSEKGVVEEWLSEFKTLPETSLPNYATNLKDKSSLVSSLYKVIQEPQSELLEPVCHQLFEFYRSGEEQLLQFTLQFLPELIWCYLAVSASRNVHSSGCIEALLLGVYNLEIVDKQGHTKVLSFTIPSLSKPSVYHEPSSIGSMALTESALSQHGLSKVVYSGPHPQREMLTAQNRFEVLTFLLLCYNAALTYMPSVSLQSLCQICSRICVCGYPRQHVRKYKGISSRIPVSSGFMVQMLTGIYFAFYNGEWDLAQKALDDIIYRAQLELYPEPLLVANAIKASLPHGPMKSNKEGTRCIQVEITPT
chain 3: SNTEEITFEALKKAIDTSGMEEQEKEKRRLVIEKFQKAPFEEIAAQCESKANLLHDRLAQILELTIRPPPS

Variants of: B1
Experiment: BLI
Details: with TTC7B-FAM126A (1 to 308) [human]; His-EFR3A loaded on the anti-penta-His tip at 200 nM, TTC7B-FAM126A at 500 nM; 25°C; 20 mM HEPES (pH 7.5), 150 mM NaCl; read off a plot
reported property: response (nm)

mutation_spec="chain 3 A14R" reported_property=response reported=0.23
mutation_spec="chain 3 R57E" reported_property=response reported=1.3
mutation_spec="chain 3 F35A" reported_property=response reported=-0.02
mutation_spec="chain 3 I61A" reported_property=response reported=1.5
mutation_spec="chain 3 L11R" reported_property=response reported=0.17
mutation_spec="chain 3 K50E" reported_property=response reported=0.82
mutation_spec="chain 3 F40A" reported_property=response reported=0.84
mutation_spec="chain 3 F8A" reported_property=response reported=0.47
mutation_spec="chain 3 L11A" reported_property=response reported=0.01
mutation_spec="chain 3 I43A" reported_property=response reported=0.45
mutation_spec="chain 3 K12E" reported_property=response reported=0.27
